Biological target: His-NS3-NS4AFL (full-length NS3-NS4A protein complex) (Hepatitis C virus genotype 1b)
Construct: made in house; host or cells: Sf21 insect cells, recombinant baculovirus (Bac-to-Bac, pFastBac HTa)
Sequence (P26663 1658-1711): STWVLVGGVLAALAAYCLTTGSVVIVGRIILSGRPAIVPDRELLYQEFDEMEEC
Sequence (P26663 1027-1657): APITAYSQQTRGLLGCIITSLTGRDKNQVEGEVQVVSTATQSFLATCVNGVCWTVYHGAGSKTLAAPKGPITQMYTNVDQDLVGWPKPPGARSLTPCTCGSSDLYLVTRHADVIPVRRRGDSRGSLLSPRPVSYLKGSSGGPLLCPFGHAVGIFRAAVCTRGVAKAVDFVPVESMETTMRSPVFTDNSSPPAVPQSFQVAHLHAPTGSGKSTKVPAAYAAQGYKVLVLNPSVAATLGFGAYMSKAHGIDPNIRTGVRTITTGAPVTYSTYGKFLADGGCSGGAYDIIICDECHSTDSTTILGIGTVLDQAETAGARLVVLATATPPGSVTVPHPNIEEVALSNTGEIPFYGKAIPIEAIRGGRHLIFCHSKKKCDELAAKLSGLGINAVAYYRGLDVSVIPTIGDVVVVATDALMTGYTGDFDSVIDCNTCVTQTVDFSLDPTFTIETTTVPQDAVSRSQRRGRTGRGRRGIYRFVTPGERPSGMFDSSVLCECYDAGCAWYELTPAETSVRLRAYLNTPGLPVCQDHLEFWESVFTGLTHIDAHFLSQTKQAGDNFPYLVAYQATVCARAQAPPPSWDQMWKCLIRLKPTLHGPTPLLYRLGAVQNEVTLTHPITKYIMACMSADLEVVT
Assay: Full-length NS3-NS4A heterodimer protein fluorogenic assay
Assay type: biochemical, HCV genotype 1b
Conditions: fluorogenic assay of Example 48; no asterisk; read-out: enzyme activity (IC50 grade)

compound	targetUnderTest	IC50
COc1ccc2c(OC3CC4C(=O)NC5(C(=O)O)CC5CCC=CCSC(C)(C)C(NC(=O)OC(C)(C)C)C(=O)N4C3)cc(-c3ccccc3)nc2c1 (centres unmarked) [Compound 412]	His-NS3-NS4AFL (full-length NS3-NS4A protein complex) (Hepatitis C virus genotype 1b)	> 1000 nM
COc1ccc2c(O[C@@H]3C[C@H]4C(=O)N[C@]5(C(=O)O)C[C@@H]5/C=C/CCC[C@H](NC(=O)OC(C)(C)C)C(=O)N4C3)cc(-c3ccccc3)nc2c1 [Compound 302]	His-NS3-NS4AFL (full-length NS3-NS4A protein complex) (Hepatitis C virus genotype 1b)	> 1000 nM
COc1ccc2c(OC3CC4C(=O)NC5(C(=O)O)CC5CCC=CCOCC(NC(=O)OC(C)(C)C)C(=O)N4C3)cc(-c3ccccc3)nc2c1 (centres unmarked) [Compound 403]	His-NS3-NS4AFL (full-length NS3-NS4A protein complex) (Hepatitis C virus genotype 1b)	< 100 nM
COc1ccc2c(O[C@@H]3C[C@H]4C(=O)N[C@]5(C(=O)O)C[C@H]5/C=C\COCCC[C@H](O)C(=O)N4C3)cc(-c3ccccc3)nc2c1 [Compound 305]	His-NS3-NS4AFL (full-length NS3-NS4A protein complex) (Hepatitis C virus genotype 1b)	100 to 1000 nM
COc1ccc2c(O[C@@H]3C[C@H]4C(=O)N[C@]5(C(=O)O)C[C@H]5C=CCCCC=CC[C@H](NC(=O)OC(C)(C)C)C(=O)N4C3)cc(-c3ccccc3)nc2c1 [Compound 304]	His-NS3-NS4AFL (full-length NS3-NS4A protein complex) (Hepatitis C virus genotype 1b)	< 100 nM

* * *

Target: His-NS3-NS4AFL (full-length NS3-NS4A protein complex) (Hepatitis C virus genotype 1b)
Construct: made in house; host or cells: Sf21 insect cells, recombinant baculovirus (Bac-to-Bac, pFastBac HTa)
Assay: Full-length NS3-NS4A heterodimer protein fluorogenic assay
Format: biochemical, HCV genotype 1b
Details: fluorogenic assay of Example 48; no asterisk; read-out: enzyme activity (IC50 grade)
measuredMetric: IC50

> print(dat)
                                   compound                           targetundertest  measuredmetric        reported
1  COc1ccc2c(O[C@@H]3C[C@H]4C(=O)N[C@]5(C(=O)O)C[C@@H]5/C=C/COCCC[C@H](NC(=O)OC(C)(C)C)C(=O)N4C3)cc(-c3ccccc3)nc2c1  His-NS3-NS4AFL (full-length NS3-NS4A protein complex) (Hepatitis C virus genotype 1b)            IC50  100 to 1000 nM
2  COc1ccc2c(OC3CC4C(=O)NC5(C(=O)O)CC5CCC=CCCCC(NC(=O)OC(C)(C)C)C(=O)N4C3)cc(-c3ccccc3)nc2c1 (stereo not drawn)  His-NS3-NS4AFL (full-length NS3-NS4A protein complex) (Hepatitis C virus genotype 1b)            IC50  100 to 1000 nM
3  CC(C)(C)OC(=O)N[C@H]1CCCCC/C=C\[C@@H]2C[C@@]2(C(=O)O)NC(=O)[C@@H]2C[C@@H](Oc3cc(C(F)(F)F)nc4cc(O)ccc34)CN2C1=O  His-NS3-NS4AFL (full-length NS3-NS4A protein complex) (Hepatitis C virus genotype 1b)            IC50        < 100 nM

* * *

In this section, each of the molecules is paired with its reported EC50.
Biological target: NS3 protease (Hepatitis C virus genotype 1b)
Assay: NS3 protease cell-based assay (SEAP reporter, Huh-7 cells)
Settings: SEAP activity, 24-hour incubation, read-out: cell. act. (EC50 code)

molecule	EC50
COc1ccc2c(O[C@@H]3C[C@H]4C(=O)N[C@]5(C(=O)O)CC5/C=C\CCCCC[C@H](NC(=O)OC5CCCC5)C(=O)N4C3)cc(-c3csc(NC4CCC4)n3)nc2c1 (some centres unmarked)	≤ 1000 nM
CNc1nc(-c2cc(O[C@@H]3C[C@H]4C(=O)N[C@]5(C(=O)O)C[C@H]5/C=C\CCCCC[C@H](NC(=O)OC(C)(C)C)C(=O)N4C3)c3ccc(OC)cc3n2)cs1	≤ 1000 nM
COC(=O)Nc1nc(-c2cc(O[C@@H]3C[C@H]4C(=O)N[C@]5(C(=O)O)C[C@H]5/C=C\CCCCC[C@H](NC(=O)OC(C)(C)C)C(=O)N4C3)c3ccc(OC)cc3n2)cs1	≤ 1000 nM
COc1ccc2c(O[C@@H]3C[C@H]4C(=O)N[C@]5(C(=O)O)C[C@H]5/C=C\CCCCC[C@H](NC(=O)OC(C)(C)C)C(=O)N4C3)cc(C)nc2c1	> 1000 nM
COCc1cc(O[C@@H]2C[C@H]3C(=O)N[C@]4(C(=O)O)C[C@H]4/C=C\CCCCC[C@H](NC(=O)OC(C)(C)C)C(=O)N3C2)c2ccc(OC)cc2n1	> 1000 nM
COc1ccc2c(O[C@@H]3C[C@H]4C(=O)N[C@]5(C(=O)O)C[C@H]5/C=C\CCCCC[C@H](NC(=O)OC(C)(C)C)C(=O)N4C3)cc(-c3csc(N)n3)nc2c1	≤ 1000 nM
COc1ccc2c(O[C@@H]3C[C@H]4C(=O)N[C@]5(C(=O)O)C[C@H]5/C=C\CCCCC[C@H](NC(=O)OC(C)(C)C)C(=O)N4C3)cc(-c3ccccn3)nc2c1	≤ 1000 nM
COc1ccc2c(O[C@@H]3C[C@H]4C(=O)N[C@]5(C(=O)O)C[C@H]5/C=C\CCCCC[C@H](NC(=O)OC(C)(C)C)C(=O)N4C3)cc(-c3csc(NC(C)=O)n3)nc2c1	≤ 1000 nM
